assay_remarks: AUC (0 to last) in CD-1 mouse at 1 mg/kg, iv administered as single dose measured after 24 hrs by LC-MS/MS analysis
Type: ADME, organism-based
Design: route intravenous, dose 1 mg/kg, time 24 hrs
settings: in vivo

| smi | AUC(0-t) at 24 h, ng·h/mL |
| --- | --- |
| O=C(O)Cc1ccc(CNC(=O)Nc2cc(Cl)c(-c3ccccc3OC(F)(F)F)c(Cl)c2)cc1 | 1270 |

----------
assay_remarks: Half life in CD-1 mouse at 5 mg/kg, po administered as single dose measured after 24 hrs by LC-MS/MS analysis
Format: ADME, organism-based
settings: in vivo

| smi | unit_descriptor | half-life |
| --- | --- | --- |
| O=C(O)Cc1ccc(CNC(=O)Nc2cc(Cl)c(-c3ccccc3OC(F)(F)F)c(Cl)c2)cc1 | h | 3.63 |
